System: Renilla luciferase RNA
experiment summary: Barcoded aptazyme variant library screen: un-cleaved Renilla luciferase RNA by barcode read counts, HEK293-T cells
Assay type: cell-based
experimental context: un-cleaved Renilla luciferase RNA, HEK293-T cells cultured with 1 mM theophylline (ON) over without theophylline (OFF); barcode read counts, triplicate
property name: Fold change in RNA expression between the ON state and the OFF state (fold)
Please give a number only; it is taken to be in fold.

Worked examples, 6 molecules total:
molecule	value measured
RA264 (nucleic acid, expressed or natural sequence) DNA: GCGCGTCCTGGATTCGCGGAAACGCGTACATCCAGCTAGAATACCAGCATCGTCTTGATGCCCTTGGAAGTCTGACGAGTCCCAAATAGGACGAAACGCGC	1.0
RA277 (nucleic acid, expressed or natural sequence) DNA: GCGCGTCCTGGATTCGCGGAAACGCGTACATCCGAGAATACCAGCATCGTCTTGATGCCCTTGGAAGTCTCAGCTGACGAGTCCCAAATAGGACGAAACGCGC	1.0
RA246 (nucleic acid, expressed or natural sequence) DNA: GCGCGTCCTGGATTCGCGGAGAATACCAGCATCGTCTTGATGCCCTTGGAAGTCTCGAAACGCGTACATCCAGCTGACGAGTCCCAAATAGGACGAAACGCGC	1.1
RA287 (nucleic acid, expressed or natural sequence) DNA: GCGCGTCCTGGATTCGCGGAAACGCGTACATCCAGCTGACGAAGTGATACCAGCATCGTCTTGATGCCCTTGGCAGCACTGTCCCAAATAGGACGAAACGCGC	1.0
RA109 (nucleic acid, expressed or natural sequence) DNA: GCGCCGAGAATACCAGCATCGTCTTGATGCCCTTGGAAGTCTCGGTCCTGGATTCGCGGAAACGCGTACATCCAGCTGACGAGTCCCAAATAGGACGAAACGCGC	1.6
RA018 (nucleic acid, expressed or natural sequence) DNA: GCGCGTCCTGGATTCGCGGAAACGCGTACATCCAGCTGACGAGTCCCAAAGTGATACCAGCATCGTCTTGATGCCCTTGGCAGCACTATAGGACGAAACGCGC	2.8

Now for a further molecule.
Item under review: RA180 (nucleic acid, expressed or natural sequence) DNA: GCGCGTCCTGGATTCGCGGAAACGCGTACATCCAGCTGGAGAATACCAGCATCGTCTTGATGCCCTTGGAAGTCTCACGAGTCCCAAATAGGACGAAACGCGC . Reported Fold change in RNA expression between the ON state and the OFF state?
1.3
